system: XIP peptide (Xip251-270); test: compounds binding XIP fragment 251-270 – biochemical, small-molecule microarray, fluorescence 635/667 nm, 0.5 µg/mL protein, primary screen (AID 1183); conditions: fluorescence 635 nm, higher = more signal
Decision: composite z-score >= 0.6 yields Yes, all other cases yield No.

compound	label_class
CC(c1ccccc1)C(O)C1C=CC2C(=O)N(C)C(=O)C2N1Nc1ccccc1 (configuration not stated)	Yes
COCCOC(=O)N1C(=O)[C@@]2(c3cc(C#CCCO)ccc31)[C@H](c1ccc(OCCO)cc1)N1[C@H](c3ccccc3)[C@H](c3ccccc3)OC(=O)[C@H]1[C@@H]2C(=O)Nc1nc2ccccc2s1	No
CC(C)N1C(=O)C[C@@](C(=O)O)(c2ccc([N+](=O)[O-])cc2)[C@H]1c1ccc(CO)cc1	Yes
CCCCCN1CC=CC23O[C@@H]4/C=C\CCCOC(=O)C4[C@H]2C(=O)N(C(C)CO)[C@@H]3C1=O (some centres not stated)	No
CCOC(=O)C[C@H]1[C@H](OC(=O)c2ccccc2-c2ccccc2)[C@@H](NC(=O)c2ccc3ccccc3n2)c2cc(OCCCO)ccc2N1C(=O)Cc1ccc(OC)cc1	No
COC(=O)[C@@]1(Cc2ccc(F)cc2)[C@H]2c3cc(C(=O)N(C)C)n(Cc4ccc(OC(F)(F)F)cc4)c3C[C@H]2CN1C(=O)c1ccccc1	No
C=C[C@H](C)[C@H](OC(=O)Nc1ccc(SC)cc1)c1ccc(OCCO)cc1	No
CN1C2C=C(CCCO)C(C3C(=O)N(C(N)=O)C(=O)C32)C1C1CC1 (configuration not stated)	No
CC(C)[Si]1(C(C)C)OCc2cc(C3CC3)nc(-c3ccc(Oc4ccccc4)cc3)c21	No
Cc1cc(C)c(C(O)C2C=CC3C(=O)N(c4ccccc4)C(=O)C3N2Nc2ccccc2F)c(C)c1 (configuration not stated)	Yes
[N-]=[N+]=Nc1ccccc1C[C@@]1(C(=O)NCCN2CCOCC2)N=C(c2ccc(OCCCO)cc2)O[C@@H]1c1ccccc1N=[N+]=[N-]	Yes
COCCOC(=O)N1C(=O)[C@@]2(c3cc(C#CC4(O)CCCCCC4)ccc31)[C@H](C(=O)N1CCc3cc(OC)c(OC)cc3C1)[C@H]1C(=O)O[C@H](c3ccccc3)[C@H](c3ccccc3)N1[C@@H]2c1ccc(OCCO)cc1	Yes
CCOC(=O)C1=CC[C@@H](c2ccccc2F)N(S(=O)(=O)c2ccc(C)cc2)[C@H]1c1ccccc1	No
CC(C)c1ccc(NN2C(C(O)c3ccc(C#N)cc3)C=CC3C(=O)N(c4ccccc4)C(=O)C32)cc1 (configuration not stated)	Yes
CCCCC(=C=CC[C@H](O)c1ccc(OCCO)cc1)CCO	No
O=C1O[C@H](c2ccccc2)[C@H](c2ccccc2)N2[C@H]1[C@@H](C(=O)O)[C@]1(C(=O)Nc3ccc(C#CCCO)cc31)[C@H]2c1ccccc1OCCO	Yes
CC(C)(C)OC(=O)CC[C@@]1(C(=O)NCC(O)CO)N=C(c2ccc(OCCCO)cc2)O[C@@H]1c1ccccc1CN=[N+]=[N-] (some centres not stated)	No
NCCCCCNC(=O)[C@H]1C[C@H]2C(=O)N3CCC[C@H]3C(=O)N2[C@H]1c1cccc(OCCO)c1	Yes
COc1ccc(C(=O)Nc2ccc(CN3C(=O)[C@]4(O[C@H](CC(=O)N5Cc6ccccc6C[C@H]5CO)[C@@H]([Si](C)(C)c5ccc(OC)cc5)[C@@H]4C)c4ccccc43)cc2)cc1	Yes
[N-]=[N+]=Nc1ccccc1C[C@]1(C(=O)N2CCOCC2)COC(c2ccc(OCCCO)cc2)=N1	Yes
O=C(c1ccccc1)N1C(=O)[C@]2(Cc3ccccc31)N=C(c1ccc(OCCCO)cc1)O[C@@H]2c1ccccc1	No
CC1=C2[C@@H](CCc3ccccc3)OB(O)C[C@@H]2[C@@H]2C(=O)N(C)C(=O)[C@@H]2C1	No
